- TESTED ON: MtFBPaseII (Mycobacterium tuberculosis, UniProt P9WN21)
- Construct: His-tag (N); made in house
- Sequence (P9WN21 whole entry): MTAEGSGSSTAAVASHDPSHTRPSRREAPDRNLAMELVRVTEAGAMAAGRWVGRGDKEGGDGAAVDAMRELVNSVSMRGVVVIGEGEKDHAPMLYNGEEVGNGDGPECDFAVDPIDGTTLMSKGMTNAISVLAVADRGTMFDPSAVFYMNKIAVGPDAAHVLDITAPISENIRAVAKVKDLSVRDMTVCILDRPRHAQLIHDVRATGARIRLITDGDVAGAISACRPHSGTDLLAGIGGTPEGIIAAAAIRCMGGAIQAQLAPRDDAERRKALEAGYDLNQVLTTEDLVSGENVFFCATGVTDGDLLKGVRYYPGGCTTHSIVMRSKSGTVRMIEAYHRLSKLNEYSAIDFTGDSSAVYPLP
- EXPERIMENTAL DETAILS: FBPase activity of wild-type MtFBPaseII, malachite green assay
- Assay type: biochemical
- MEASUREMENT CONTEXT: wild-type MtFBPaseII; malachite green assay; fit of triplicate data, standard error reported; read-out: IC50 values of compounds against MtFBPaseII
The entries below are paired with their reported IC50.

// recorded IC50 for O=C(O)CC(=O)O [Malonate, malonate] : 3.2 mM

Next:
// recorded IC50 for O=C(O)CCC(=O)C(=O)O [α-Ketoglutarate, α-ketoglutarate] : 3.1 mM

Just for reference, paper PMC5892879 is where these values come from.
